Test system: human APOE RNA
assay_name: Activity in APOE C57BL/6NTac-Apoeem7250 knock-in mice, single ICV bolus, 8 weeks (Example 11)
Assay type: in vivo
settings: spinal cord; single ICV bolus 300 μg; 8 weeks post treatment; normalized to mouse Ppia
Strand notation (5' to 3'): a small letter for the sugar, then the base; units joined by * are phosphorothioate-linked, units joined directly phosphodiester-linked; [ ] holds rarer units or linkages, { } end groups; capitals alone tell only the bases. [ms] = mesyl phosphoramidate linkage; e = 2'-O-(2-methoxyethyl) (MOE); k = constrained ethyl (cEt); [5mC] = 5-methylcytosine; d = 2'-deoxy (DNA)
# APOE RNA (% control) Spinal Cord per record follows
Use % control as the unit, but write only the number.

Examples with their reported APOE RNA (% control) Spinal Cord follow.
1693102: 6-10-4 MOE gapmer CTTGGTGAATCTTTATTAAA, linkages ssssoszzzssssszssss (e[5mC]*eT*eT*eG*eGeT*dG[ms]dA[ms]dA[ms]dT*d[5mC]*dT*dT*dT*dA[ms]dT*eT*eA*eA*eA) [compound 1693102] : 43
1810063: mixed MOE/cEt gapmer CTTGGTGAATCTTTATTAAAC, sugar eeeeeeddddddddddkkeee, linkages ssoosszzzssssszsooss (e[5mC]*eT*eTeGeG*eT*dG[ms]dA[ms]dA[ms]dT*d[5mC]*dT*dT*dT*dA[ms]dT*kTkAeA*eA*e[5mC]) [compound 1810063] : 40
1809818 (eT*eTeGkG*dT*dG[ms]dA[ms]dA[ms]dT*d[5mC]*dT*dT*dT*dA[ms]kT*kTeAeA*eA*e[5mC]; antisense) [Compound 1809818] : 36

Ask: Identify the reported APOE RNA (% control) Spinal Cord for the following entry. 1809636 (kA*e[5mC]eTeT*eG*kG*dT*dG[ms]dA[ms]dA[ms]dT*d[5mC]*dT*dT*dT*dA[ms]kT*kT*eA*kA; antisense) [Compound 1809636]
Result: 11

----------
Test system: human APOE RNA
assay_name: Dose-dependent reduction of human APOE RNA in HepG2 cells, electroporation, 20,000 cells per well, average of GAPDH- and PPIA-normalized results (Example 4, Table 12)
Format: cell-based
settings: 8,000 nM, HepG2, 20,000 cells per well
Strand notation (5' to 3'): a small letter for the sugar, then the base; units joined by * are phosphorothioate-linked, units joined directly phosphodiester-linked; [ ] holds rarer units or linkages, { } end groups; capitals alone tell only the bases. [ms] = mesyl phosphoramidate linkage; e = 2'-O-(2-methoxyethyl) (MOE); k = constrained ethyl (cEt); [5mC] = 5-methylcytosine; d = 2'-deoxy (DNA)
# APOE RNA (% UTC) per record follows
Use % UTC as the unit, but write only the number.

Aes^mCeoTeoTesGesGksTdsGdzAdzAdzTds^mCdsTdsTdsTdsAdzTksTksAesAe (eA*e[5mC]eTeT*eG*kG*dT*dG[ms]dA[ms]dA[ms]dT*d[5mC]*dT*dT*dT*dA[ms]kT*kT*eA*eA) [Compound No. 1757576] : 11
1785599: modified oligonucleotide complementary to human APOE RNA (k[5mC]*kT*kT*dG[ms]dG[ms]dT[ms]dG[ms]dA[ms]dA[ms]dT[ms]d[5mC]*dT*dT*dT*dA*dT*kT*kA*dA[ms]kA; antisense) [compound 1785599] : 10
1746809 (k[5mC]*dT[ms]kT*dG[ms]kG*dT[ms]dG[ms]dA[ms]dA[ms]dT*d[5mC]*dT*dT*dT*dA[ms]dT*dT[ms]kA*kA*kA; antisense) [Compound 1746809] : 15
1778111: modified oligonucleotide complementary to human APOE RNA (eA*e[5mC]eTeTeG*kG*dT*dG[ms]dA[ms]dA*dT*d[5mC]*dT*dT*dT*dA[ms]eTeT*eA*eA; antisense) [compound 1778111] : 14
1757575 (eA*e[5mC]eTeT*kG*kG*dT*dG[ms]dA[ms]dA[ms]dT*d[5mC]*dT*dT*dT*dA[ms]kT*eT*eA*eA; antisense) [Compound 1757575] : 10
1778131: modified oligonucleotide complementary to human APOE RNA (eA*e[5mC]eTeTeGkG*dT*dG[ms]dA[ms]dA*dT*d[5mC]*dT*dT*dT*dA[ms]kTkT*eA*eA; antisense) [compound 1778131] : 5
1785598: modified oligonucleotide complementary to human APOE RNA (k[5mC]*kT*kT*dG[ms]dG[ms]dT[ms]dG[ms]dA[ms]dA[ms]dT*d[5mC]*dT*dT*dT*dA*dT[ms]kT*kA*dA[ms]kA; antisense) [compound 1785598] : 11
1778128: modified oligonucleotide complementary to human APOE RNA (eA*e[5mC]eTeTkGkG*dT*dG[ms]dA[ms]dA*dT*d[5mC]*dT*dT*dT*dA[ms]kTeT*eA*eA; antisense) [compound 1778128] : 22

// switching to the query substance
Ask: Identify the reported APOE RNA (% UTC) for the following entry. 1785617: modified oligonucleotide complementary to human APOE RNA (k[5mC]*dT[ms]dT[ms]kG*dG[ms]kT*dG[ms]dA[ms]dA[ms]dT[ms]d[5mC]*dT*dT*dT*dA*dT*kT*kA*dA[ms]kA; antisense) [compound 1785617]
Result: 20
